Hello, the source for this data is patent US5883257A, in case you need it.

assay_system: dopamine D3 receptor (Chlorocebus aethiops, UniProt P52703)
Sequence (P52703 whole entry): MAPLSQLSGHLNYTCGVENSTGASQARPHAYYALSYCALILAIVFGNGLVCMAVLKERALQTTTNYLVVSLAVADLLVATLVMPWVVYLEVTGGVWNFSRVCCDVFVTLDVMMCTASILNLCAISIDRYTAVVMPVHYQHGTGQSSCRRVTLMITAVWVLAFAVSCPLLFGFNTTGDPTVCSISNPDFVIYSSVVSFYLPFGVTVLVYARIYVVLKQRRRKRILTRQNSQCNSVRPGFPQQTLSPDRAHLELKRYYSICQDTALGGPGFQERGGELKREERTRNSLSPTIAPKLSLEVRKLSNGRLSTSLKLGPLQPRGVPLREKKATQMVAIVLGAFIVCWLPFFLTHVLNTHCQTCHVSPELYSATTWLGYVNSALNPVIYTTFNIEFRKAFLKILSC
assay_remarks: D3 receptor binding assay (displacement of 3H-YM 09151-2)
assay_context: 0.5 nM 3H-YM 09151-2; COS cells with recombinant D3 receptors; 0.05M Tris HCl, 100 mM NaCl; nonspecific: 1 mM spiperone
Where a name gives a salt, the structure may show the parent alone.
Kindly state Ki for each of the entries shown.

{"compound": "O=C(NCCCCN1CCN(c2cccc3ccccc23)CC1)c1ccc2cc3ccccc3cc2c1 [Compound 2, hydrochloride]", "Ki": "1.2 nM"}

// next item, Ki requested
Query: // lookup Ki for O=C(NCCCCN1CCN(c2cccc(Cl)c2Cl)CC1)c1ccc2cc3ccccc3cc2c1 [Compound 1]
Response: 7 nM
